- Tested on: Escherichia coli TOP10
- assay text: shrunken log2 fold change of peptide-encoding DNA abundance (4.5 h post-induction vs induction); higher = less antimicrobial activity (less host growth inhibition)
- run parameters: time post-induction: 4.5 h; library: site-saturation at positions 5, 18, 19, 20
Entries are grouped by shrunken log2 fold change into these classes: bin 1 = under -0.1, bin 2 = from -0.1 up to 0.06, bin 3 = 0.06 and over

Use these answered entries as a reference point.
RRIRTRPPRLPRPRPRPVKGPRP | bin 2
RRIRVRPPRLPRPRPRPEGQPRP | bin 3
RRIRCRPPRLPRPRPRPDRKPRP | bin 1
RRIRNRPPRLPRPRPRPAGRPRP | bin 3
RRIRVRPPRLPRPRPRPYCVPRP | bin 1

Lookup: Bin? RRIRVRPPRLPRPRPRPRQDPRP
Found: bin 3

Lookup: Input RRIRCRPPRLPRPRPRPIRGPRP
Found: bin 2

----------
Attribute: shrunken log2 fold change
- System: Escherichia coli TOP10
- assay text: shrunken log2 fold change of peptide-encoding DNA abundance (4.5 h post-induction vs induction); higher = less antimicrobial activity (less host growth inhibition)
- run parameters: time post-induction: 4.5 h; library: site-saturation at positions 5, 18, 19, 20
Respond numerically, and do not add a unit to the figure.

Study these solved cases before continuing.
RRIRARPPRLPRPRPRPFPDPRP | 0.262
RRIRCRPPRLPRPRPRPDMVPRP | -0.184
RRIRWRPPRLPRPRPRPLYIPRP | -0.872
RRIRERPPRLPRPRPRPTHNPRP | -0.206
RRIRQRPPRLPRPRPRPDAVPRP | -0.0012

Lookup: Value lookup for shrunken log2 fold change; key = RRIRVRPPRLPRPRPRPKVEPRP
Found: 0.317

Lookup: Input RRIRHRPPRLPRPRPRPKYYPRP
Found: 0.046

Lookup: Input RRIRDRPPRLPRPRPRPWLYPRP
Found: -0.68

Lookup: Input RRIRPRPPRLPRPRPRPDVYPRP
Found: -0.194

Lookup: Input RRIRQRPPRLPRPRPRPAKTPRP
Found: -0.0724

Lookup: Input RRIRYRPPRLPRPRPRPHFRPRP
Found: -0.444

Lookup: Input RRIRARPPRLPRPRPRPEAKPRP
Found: 0.73

Lookup: Input RRIRGRPPRLPRPRPRPIVQPRP
Found: 0.606

Lookup: Input RRIRHRPPRLPRPRPRPYYYPRP
Found: -1.31

Lookup: Input RRIRVRPPRLPRPRPRPLQEPRP
Found: 0.298

Lookup: Input RRIRARPPRLPRPRPRPMWWPRP
Found: 0.166

Lookup: Input RRIRPRPPRLPRPRPRPKNSPRP
Found: -0.144

Lookup: Input RRIRYRPPRLPRPRPRPECAPRP
Found: -0.126

Lookup: Input RRIRKRPPRLPRPRPRPPKLPRP
Found: 0.658

Lookup: Input RRIRPRPPRLPRPRPRPTLKPRP
Found: 0.114

----------
- System: Escherichia coli TOP10
- assay text: shrunken log2 fold change of peptide-encoding DNA abundance (4.5 h post-induction vs induction); higher = less antimicrobial activity (less host growth inhibition)
- run parameters: time post-induction: 4.5 h; library: site-saturation at positions 5, 18, 19, 20
readout type: shrunken log2 fold change
Respond numerically, and do not add a unit to the figure.

RRIRFRPPRLPRPRPRPHRRPRP | 0.189
RRIRARPPRLPRPRPRPIPEPRP | 0.0265
RRIRMRPPRLPRPRPRPATEPRP | 0.996

Lookup: Value lookup for shrunken log2 fold change; key = RRIRTRPPRLPRPRPRPGYNPRP
Found: -0.957

Lookup: Input RRIRMRPPRLPRPRPRPMGAPRP
Found: 1.18

----------
- System: Escherichia coli TOP10
- assay text: shrunken log2 fold change of peptide-encoding DNA abundance (4.5 h post-induction vs induction); higher = less antimicrobial activity (less host growth inhibition)
- run parameters: time post-induction: 4.5 h; library: site-saturation at positions 5, 18, 19, 20
Decide by shrunken log2 fold change: equal to or exceeding -0.03 means Met, less means Not met.

Use these answered entries as a reference point.
RRIRDRPPRLPRPRPRPNKSPRP | Not met
RRIRMRPPRLPRPRPRPGPQPRP | Met
RRIRHRPPRLPRPRPRPQGWPRP | Met
RRIRSRPPRLPRPRPRPITNPRP | Met
RRIRSRPPRLPRPRPRPKDLPRP | Met

Lookup: shrunken log2 fold change >= -0.03 for RRIRRRPPRLPRPRPRPDCMPRP ?
Found: Met

Lookup: Input RRIRVRPPRLPRPRPRPIRWPRP
Found: Not met

Lookup: Input RRIRYRPPRLPRPRPRPELQPRP
Found: Met

Lookup: Input RRIRQRPPRLPRPRPRPDCRPRP
Found: Met

Lookup: Input RRIRHRPPRLPRPRPRPPCSPRP
Found: Not met

Lookup: Input RRIRFRPPRLPRPRPRPEDKPRP
Found: Not met

Lookup: Input RRIRSRPPRLPRPRPRPDATPRP
Found: Met

Lookup: Input RRIRYRPPRLPRPRPRPLHPPRP
Found: Not met

Lookup: Input RRIRFRPPRLPRPRPRPKQCPRP
Found: Not met

Lookup: Input RRIRWRPPRLPRPRPRPKMPPRP
Found: Met

Lookup: Input RRIRNRPPRLPRPRPRPSELPRP
Found: Not met

----------
- Tested on: Escherichia coli TOP10
- assay text: shrunken log2 fold change of peptide-encoding DNA abundance (4.5 h post-induction vs induction); higher = less antimicrobial activity (less host growth inhibition)
- run parameters: time post-induction: 4.5 h; library: site-saturation at positions 5, 18, 19, 20
Decide by shrunken log2 fold change: equal to or exceeding -0.04 means Fulfilled, less means Not fulfilled.

RRIRYRPPRLPRPRPRPGTFPRP | Not fulfilled
RRIRVRPPRLPRPRPRPFREPRP | Fulfilled
RRIRLRPPRLPRPRPRPMAQPRP | Fulfilled

Lookup: shrunken log2 fold change >= -0.04 for RRIRERPPRLPRPRPRPEQAPRP ?
Found: Fulfilled

Lookup: Input RRIRQRPPRLPRPRPRPGTCPRP
Found: Not fulfilled

Lookup: Input RRIRNRPPRLPRPRPRPNQQPRP
Found: Not fulfilled

Lookup: Input RRIRARPPRLPRPRPRPLEWPRP
Found: Fulfilled

Lookup: Input RRIRQRPPRLPRPRPRPVFIPRP
Found: Not fulfilled

----------
Attribute: shrunken log2 fold change
- System: Escherichia coli TOP10
- assay text: shrunken log2 fold change of peptide-encoding DNA abundance (4.5 h post-induction vs induction); higher = less antimicrobial activity (less host growth inhibition)
- run parameters: time post-induction: 4.5 h; library: site-saturation at positions 5, 18, 19, 20

Study these solved cases before continuing.
RRIRTRPPRLPRPRPRPVEPPRP | 0.00744
RRIRGRPPRLPRPRPRPPASPRP | 1.07
RRIRRRPPRLPRPRPRPADTPRP | 0.423
RRIRPRPPRLPRPRPRPDESPRP | -0.188
RRIRWRPPRLPRPRPRPWDGPRP | 0.00386

Lookup: Value lookup for shrunken log2 fold change; key = RRIRIRPPRLPRPRPRPSCFPRP
Found: -0.625

----------
- Test system: Escherichia coli TOP10;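 also: peptides expressed intracellularly from a pBAD plasmid library in pooled LB shake-flask culture, induced with 0.3% L-arabinose, DNA abundance read by NGS, three biological replicates, DESeq2 with apeglm shrinkage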
- assay text: shrunken log2 fold change of peptide-encoding DNA abundance (4.5 h post-induction vs induction); higher = less antimicrobial activity (less host growth inhibition)
- run parameters: time post-induction: 4.5 h; library: site-saturation at positions 5, 18, 19, 20
Attribute: shrunken log2 fold change
Respond numerically, and do not add a unit to the figure.

Study these solved cases before continuing.
RRIRERPPRLPRPRPRPFFWPRP | 0.138
RRIRMRPPRLPRPRPRPGIPPRP | 0.726
RRIRDRPPRLPRPRPRPCWHPRP | 2.46
RRIRPRPPRLPRPRPRPCTQPRP | -0.106
RRIRVRPPRLPRPRPRPRPPPRP | 0.843

Lookup: Value lookup for shrunken log2 fold change; key = RRIRNRPPRLPRPRPRPYCQPRP
Found: -0.358

Lookup: Input RRIRPRPPRLPRPRPRPEYNPRP
Found: -0.624

Lookup: Input RRIRCRPPRLPRPRPRPSGRPRP
Found: 0.235

Lookup: Input RRIRIRPPRLPRPRPRPDHQPRP
Found: -0.0128

Lookup: Input RRIRSRPPRLPRPRPRPCAYPRP
Found: -0.431

Lookup: Input RRIRERPPRLPRPRPRPCFKPRP
Found: -0.0311

Lookup: Input RRIRWRPPRLPRPRPRPGTCPRP
Found: 0.0934

Lookup: Input RRIRDRPPRLPRPRPRPWGGPRP
Found: 0.422

Lookup: Input RRIRGRPPRLPRPRPRPYTRPRP
Found: -0.0484

Lookup: Input RRIRWRPPRLPRPRPRPTKHPRP
Found: -0.118

Lookup: Input RRIRDRPPRLPRPRPRPHDPPRP
Found: -0.147

Lookup: Input RRIRFRPPRLPRPRPRPNSCPRP
Found: -0.895

Lookup: Input RRIRFRPPRLPRPRPRPEQVPRP
Found: 0.0138

Lookup: Input RRIRSRPPRLPRPRPRPAKDPRP
Found: 0.135

Lookup: Input RRIRWRPPRLPRPRPRPINWPRP
Found: 0.0481

Lookup: Input RRIRHRPPRLPRPRPRPNFPPRP
Found: -0.189
